- experimental_system: Cathepsin B (Bos taurus) (UniProt P07688)
- test_description: Percent inhibition of bovine cathepsin B at 2 uM
Square brackets hold non-standard residues; d marks the D form. Peptide text beside a SMILES is read from it. * marks the point of attachment. ξ: configuration not given here. ξF = NC(Cc1ccccc1)C(=O)O; Cbz = O=C(OCc1ccccc1)*
measured_parameter: inhibition (%)

Sample answers from the record:
>>> print(df.to_string())
                                   compound  measured_parameter  quantitative_readout
0  NC(=O)C(=O)[C@H](Cc1ccccc1)NC(=O)c1cc(=O)c2ccccc2o1          inhibition                  55.4
1  Cc1c(C(=O)N[C@@H](Cc2ccccc2)C(=O)C(N)=O)oc2cc3c(cc2c1=O)OCCO3          inhibition                  60.8
2  Cc1c(C(=O)N[C@@H](Cc2ccccc2)C(=O)C(=O)NCCN2CCOCC2)oc2cc3c(cc2c1=O)OCCO3          inhibition                     0
3  Cc1c(C(=O)N[C@@H](Cc2ccccc2)C(=O)C(=O)NCCc2ccccc2)oc2ccccc2c1=O          inhibition                    49

a: CCc1c(C(=O)N[C@@H](Cc2ccccc2)C(=O)C(N)=O)oc2ccccc2c1=O
b: Cc1c(C(=O)N[C@@H](Cc2ccccc2)C(=O)C(=O)NCc2ccccc2)oc2cc3c(cc2c1=O)OCCO3
c: Cc1c(C(=O)N[C@@H](Cc2ccccc2)C(=O)C(=O)NCCN2CCOCC2)oc2ccccc2c1=O
d: CC(C)[C@H](NC(=O)OCc1ccccc1)C(=O)NC(C=O)Cc1ccccc1 (stereo partly drawn) (Cbz-Val-[ξF]-aldehyde)
Problem: Reorder: inhibition, max to min. Give your ranking as a list of the labels in the requested order.
Solution: d, a, b, c
(d: 96.6%, a: 61.2%, b: 18.6%, c: 0%)

* * *

- experimental_system: Procathepsin L (Homo sapiens)
- test_description: Percent inhibition of human liver cathepsin L at 2 uM
Square brackets hold non-standard residues; d marks the D form. Peptide text beside a SMILES is read from it. * marks the point of attachment. ξ: configuration not given here. ξF = NC(Cc1ccccc1)C(=O)O; Cbz = O=C(OCc1ccccc1)*
measured_parameter: inhibition (%)

Sample answers from the record:
                                   compound  quantitative_readout
0  Cc1c(C(=O)N[C@@H](Cc2ccccc2)C(=O)C(=O)NCCc2ccccc2)oc2ccccc2c1=O                  78.9
1  Cc1c(C(=O)N[C@@H](Cc2ccccc2)C(=O)C(=O)NCCN2CCOCC2)oc2cc3c(cc2c1=O)OCCO3                  26.5
2  CCc1c(C(=O)N[C@@H](Cc2ccccc2)C(=O)C(N)=O)oc2ccccc2c1=O                  89.2
3  Cc1c(C(=O)N[C@@H](Cc2ccccc2)C(=O)C(N)=O)oc2ccccc2c1=O                  81.5
4  Cc1c(C(=O)N[C@@H](Cc2ccccc2)C(=O)C(=O)NCCc2ccccc2)oc2cc3c(cc2c1=O)OCCO3                  66.8
5  CC(C)[C@H](NC(=O)OCc1ccccc1)C(=O)NC(C=O)Cc1ccccc1 (stereo partly drawn) (Cbz-Val-[ξF]-aldehyde)                   100

I: Cc1c(C(=O)N[C@@H](Cc2ccccc2)C(=O)C(=O)NCc2ccccc2)oc2cc3c(cc2c1=O)OCCO3
II: Cc1c(C(=O)N[C@@H](Cc2ccccc2)C(=O)C(=O)NC(C)C)oc2ccccc2c1=O
Problem: Compare I and II and name the one whose reported inhibition is smaller. Respond with the label that goes with your answer.
Solution: II
